Data provenance is ChEMBL document CHEMBL1201862.

# Tested on: HL-60
# protocol: NCI tumour cell line growth inhibition, 48 h
The source made the active and inactive calls. Cut-off read from the data, not from the text of the source: active = GI50 up to about 1.1 µM and inactive = higher.
Exercise: state measured GI50 for each of the molecules provided.

Consider the following illustrative entries.
> print(dat)
                     molecule  endpoint                  val
1  C(=N\OCCc1ccccc1)/c1cccnc1      GI50   5.02 µM (inactive)
2    C(=N/Nc1ccccn1)/c1cccnc1      GI50  > 100 µM (inactive)

Report GI50 for each item below.
1. O=C(CC1(O)C(=O)Nc2c(Cl)ccc(Cl)c21)c1ccc2ccccc2c1 (stereo unspecified)
2. COC(=O)c1c(C)cc(OC)c(C/C=C(\C)CCCc2coc(C=C(C)C)c2)c1OC
3. CCN(CC)C(=O)c1cc(OC(C)C)ccc1-c1c(C)cc(OC(C)C)c(OC)c1OC

["1.73 µM (inactive)", "21.9 µM (inactive)", "45.9 µM (inactive)"]

Find the recorded GI50 belonging to CC1CN=C(N(C(=O)Nc2ccccc2)c2ccccc2)S1 (stereo unspecified) and report it.
20 µM (inactive)
